Target: T1, Strep tagged recombinant human PD-1 (human, UniProt Q15116 25-170, limits assumed)
T1 construct: the whole entry is named; also called strep tagged human PD-1; not shown: Strep tag
T1 sequence (Q15116 25-170 limits assumed): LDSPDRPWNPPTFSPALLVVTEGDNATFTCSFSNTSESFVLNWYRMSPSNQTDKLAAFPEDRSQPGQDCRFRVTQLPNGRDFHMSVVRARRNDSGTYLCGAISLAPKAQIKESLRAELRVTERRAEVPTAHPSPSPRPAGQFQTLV
Experiment: SPR Biacore T200, strep-tagged PD-1 amine-coupled, single cycle kinetics
quantity: koff (s⁻¹)

binder | numeric_value
Humabody® 1.104 (VHH, human VH single domain antibody) VHH: EVQLVESGGGLVKPGGSLRLSCAASGFTFSDESFTWMRQAPGKGLEWVSYISSGGGVKFYTDSVKGRFTISRDNAKNSLYLQMNSLRAEDTAVYYCAREAPLRLGESPHDAFDISGQGTMVTVSS | 6.3e-05
Humabody® 1.80 (VHH, human VH single domain antibody) VHH: EVQLVESGGGLVKPGGSLRLSCAASGFTFSDSSMTWMRQAPGKGLEWVSYISSGGGVKFYADSVKGRFTISRDNAKNSLYLQMNSLRAEDTAVYYCAREAPLRLGESPHDAFDISGQGTMVTVSS | 5.2e-05
1.57-6GS-1.57 (other, bivalent construct of two VH domains in one chain) QVQLVESGGGLVKPGGSLRLSCAASGFTFSDNSMTWMRQAPGKGLEWVSYISSGGGVIFYADSVKGRFTISRDNAKNSLYLQMNSLRADDTAVYYCAREAPLRLGESPHDAFDISGQGTMVTVSSGGGGSGGGGSGGGGSGGGGSGGGGSGGGGSQVQLVESGGGLVKPGGSLRLSCAASGFTFSDNSMTWMRQAPGKGLEWVSYISSGGGVIFYADSVKGRFTISRDNAKNSLYLQMNSLRADDTAVYYCAREAPLRLGESPHDAFDISGQGTMVTVSS | 1.32e-05
Humabody® 1.89 (VHH, human VH single domain antibody) VHH: EVQLVESGGGLVKPGGSLRLSCAASGFTFSDYSMTWMRQAPGKGLEWVSYISSGGGVKFYADSVKGRFTISRDNAKNSLYLQMNSLRAEDTAVYYCAREAPLRLGESPHDAFDISGQGTMVTVSS | 5.6e-05
1.77-4GS-non-blocking VH (3) (bispecific antibody) EVQLVESGGGLVKPGGSLRLSCAASGFTFSDSSMTWMRQAPGKGLEWVSYISSGGGVKFYTDSVKGRFTISRDNAKNSLYLQMNSLRAEDTAVYYCAREAPLRLGESPHDAFDISGQGTMVTVSSGGGGSGGGGSGGGGSGGGGSEVQLVESGGGLVQPGRSLRLSCAASGFTFDDYAMHWVRQAPGKDLEWVSGISWNGGSMGYAASVKGRFTISRDNAKNSLYLQMNSLRAEDTALYYCVREKGPGLTGSTADYYGLDVWGQGTMVTVSS | 3.5e-05

The measured values listed here are drawn from patent US20200239573A1.
